From: the DeepSol protein solubility set

# MEASUREMENT NOTES: soluble on expression in E. coli; label from the status in PepcDB or PDB records

SEQ STRING	soluble on expression in E. coli
MGHHHHHHSHMDRWSAGTLENSILNAYLHTIRGSQHFLYIENQFFISCSDGRTVLNKVGDEIVDRILKAHKQGWCYRVYVLLPLLPGFEGDISTGGGNSIQAILHFTYRTLCRGEYSILHRLKAAMGTAWRDYISICGLRTHGE	soluble
MDVAGLTDCGLIRKSNQDAFYIDEKHQRFFIVADGMGGHAGGEEASRLAVDHIRQYLETHLEDLQHDPVTLLRQAFLAANHAIVEQQRQNSARADMGTTAVVILLDEKGDRAWCAHVGDSRIYRWRKDQLQQITSDHTWIAQAVQLGSLTIEQARQHPWRHVLSQCLGREDLSQIDIQPIDLEPGDRLLLCSDGLTEELTDDVISIYLSEPNVQKAAAALVDAAKTHGGRDNVTVVVISV	soluble
MSVAEFDADVIVDARDCIMGRVASQVAEQALDGETVAVVNAERAVITGREEQIVEKYEKRVDIGNDNGYFYPKRPDGIFKRTIRGMLPHKKQRGREAFESVRVYLGNPYDEDGEVLDGTSLDRLSNIKFVTLGEISETLGANKTW	soluble

----------
# MEASUREMENT NOTES: soluble on expression in E. coli; label from the status in PepcDB or PDB records

SEQ STRING	soluble on expression in E. coli
MAAYSYRPGPGAGPGPAAGAALPDQSFLWNVFQRVDKDRSGVISDTELQQALSNGTWTPFNPVTVRSIISMFDRENKAGVNFSEFTGVWKYITDWQNVFRTYDRDNSGMIDKNELKQALSGFGYRLSDQFHDILIRKFDRQGRGQIAFDDFIQGCIVLQRLTDIFRRYDTDQDGWIQVSYEQYLSMVFSIV	soluble
MGSDKIHHHHHHMDFYQVIKTRTSTKKFKNTPIAAPKLDNMLNAAMMSPSWKNKTSYSFVIVDDERKKDAIANFIINSDEDAKNSVKDAPMVVAIVGDTTESGHINGKEYYLVDSAIAMEHFVLAAANEGYGTCWIASFDEKRMKDELRIPDKYSVVAITPVGEVGESKAHYEPKDIENHIYRNYWSMPYSEKKHLVMK	not soluble
MARPNFRYTHYDLKELRAGTTLEISLSSVNNVRLMTGANFQRFTELLDFKYLGGVAKKSPIRIAVPETMHWHLIIDAEGHSGLAESSVKMLPAQPQATLTRKAS	soluble
MGSDKIHHHHHHMKEAKKIDISKLKTGFLGKFPSHQLSRILSSEPDRLTEPEFLAKALKENKYVPYYYINVRENPTSIKIYRYVTKISNRDNDIDEVKNKFDSFLYGKSIVILDEVDFLQDYDVLYHITRHTKANLILLTQKVYWYMDTNDESVKSSLQPDHIVFYEYSSDEIREILKMRADEGLNKYDPDSLGLLSAMLVRNYRSDARIGIKALEIIGRMNEWDDDSVRTALKQAYVEVEGETLKNLGDRDLLILAALIKNQDTNRAYSEVSASSNLLLRGVSKSTFF	not soluble

----------
# MEASUREMENT NOTES: soluble on expression in E. coli; label from the status in PepcDB or PDB records

SEQ STRING	soluble on expression in E. coli
MSFEKLQKELHEAIEGVNRYNPENVADLAACVQAMVNENKYDKDIVLTILKLYQLNPEKYDEAVVRQVLLKTLMVLPSSDFALAKCLIDTNRLGSQELRRIFDLGAVLESCNFAVFWKLVKGAYKPTTNPNEPFKVPGEVPKMIKPMVGFEDAVKHYACRVISVTFQKIEKKMLSRLLGGASDKEVTALAQSFGWEAKENGDVFFVANHEGTIKTRNIDEKIQFPHVADLLTSIQPPLTL	not soluble
MRGLDYRWIEALDSVVSKGSFERAAEQLFISQSAVSQRIKQLEKYLAQPVLIREQPPRPTLVGKKLLGLYRRVCLIEQELVPELTNQEHVRPVSMSIATNADSLATWLLPALDKVMKSRQVELNLVIYGESRTLDKLKNGEVVGAISLEPQPITGCSAEYLGQMEYLCVASPEFYQKYFAKGVTPRSLIKAPAVSYDQYDELHNKFLWDYFAVPRDKVINHTVGSSEAFVRLALSGAAYCLIPRLQIISELESGALINMTPDFMLSYPIFWHHWQLETGVLLEISEAITAYAKSVLPQ	not soluble
